assay: Phase 1 dose-escalation (QD/BID) study in normal healthy volunteers; type: in vivo, human; conditions: human, plasma, po, 105 mg, Treatment F: 105 mg ×2, total 210 mg; oral; human plasma; mean; read-out: PM Cmax
measurement-name: Cmax (ng/mL)
Give bare numbers, in ng/mL.

What the record says about "Cc1cccc(/C=N/Nc2cc(N3CCOCC3)nc(OCCc3ccccn3)n2)c1" : Cmax is 149

###

system: DU145 (Human prostate cancer); assay: CellTiterGlo cell viability assay; type: cell-based; details: DU-145
measurement-name: IC50

Measured IC50, "Cc1cccc(/C=N/Nc2cc(N3CCOCC3)nc(OCCc3ccccn3)n2)c1" : > 2000 nM
